Origin of measurements: PubChem BioAssay (NCI)

# Tested on: UO-31 renal
# PROTOCOL_NOTES: NCI-60 one-dose screen, 48 h
# CONDITION_PARAMETERS: 10 µM
This is part of a sample that, as a whole, favours compounds with a hit. Of some 83,000 tested, about 20% had one in any assay. Calls of active or inactive are those of the source. How the source made its calls: active means growth percent below 10; inactive means the rest.
Select the correct class. Options are 1.0 = active, 0.0 = inactive and nothing else.

Previously resolved entries follow.
O=C(COCc1c(-c2ccccc2)no[n+]1[O-])Nc1nc(-c2ccc(Cl)cc2)cs1    0.0
COc1cc(CSc2nc3ccc(C)cc3c(=O)n2Cc2ccccc2)cc(OC)c1OC    0.0
C=CCc1cc(Nc2c3ccc(Cl)cc3nc3ccc(OC)cc23)cc(CN(CC)CC)c1O    1.0
CCOC(=O)C(CCC1=NC(C)(C)CC(C)O1)C(=O)OCC (stereo not given)    0.0
Cc1ccc(S(=O)(=O)Oc2ccccc2-c2ccccc2)cc1    0.0

In this assay, the call recorded for NC1CCC(Nc2nc(NCc3ccc(-c4cccs4)nc3)c3ncn(C4CCCC4)c3n2)CC1 (stereo not given) was what?
1.0
